These entries and their values trace back to ChEMBL document CHEMBL4613281.

target: Protein kinase C (PKC) (Homo sapiens) (UniProt O94806+P41743+P17252+P05129+Q05655+P05771+Q05513+Q02156+P24723+Q15139+Q04759); test: Activation of PKC in human DU145 cells assessed as increase in ERK1/ERK2 phosphorylation at 20 uM incubated for 30 mins by Western blot analysis; format: cell-based; conditions: DU-145
Active and inactive are the calls of the source. The rule behind the calls is not given here. Starred links: 1 amine or outer side, 2 acyl side, 3 side chain; linkers in the order of their positions; H or OH if unused. Non-standard residues stand in square brackets, D forms with d. Residues, ends and D or L forms follow the SMILES beside them. *: point of attachment. X1 = CC(=O)O[C@@]12[C@H](O*)[C@@H](C)[C@@]3(O)[C@@H](C=C(CO)C[C@]4(O)C(=O)C(C)=C[C@@H]34)[C@@H]1C2(C)C; 12Ado = NCCCCCCCCCCCC(=O)O; Morpholide = C1CN(*)CCO1; CO = O=C([*:1])[*:2]
property-measured: Activity

[[record]]
molecule = "CC(=O)O[C@@]12[C@H](OC(=O)CCCCCCCCCCCNC(=O)[C@@H](N)CC(C)C)[C@@H](C)[C@@]3(O)[C@@H](C=C(CO)C[C@]4(O)C(=O)C(C)=C[C@@H]34)[C@@H]1C2(C)C"
property_measured = "Activity"
recorded_measurement = "Active"

[[record]]
molecule = "CC(=O)O[C@@]12[C@H](OC(=O)CCCCCCCCCCCNC(=O)C[C@H](N)C(C)C)[C@@H](C)[C@@]3(O)[C@@H](C=C(CO)C[C@]4(O)C(=O)C(C)=C[C@@H]34)[C@@H]1C2(C)C"
property_measured = "Activity"
recorded_measurement = "Active"

[[record]]
molecule = "CC(=O)NCC(=O)N[C@@H](CCCCN)C(=O)N[C@@H](C)C(=O)N[C@@H](Cc1ccccc1)C(=O)N[C@@H](CCCNC(=N)N)C(=O)N[C@@H](CCCNC(=N)N)C(=O)N[C@@H](CC(C)C)C(=O)NCCCCCCCCCCCC(=O)O[C@@H]1[C@@H](C)[C@@]2(O)[C@@H](C=C(CO)C[C@]3(O)C(=O)C(C)=C[C@@H]23)[C@@H]2C(C)(C)[C@]12OC(C)=O (Ac-GKAFRRL[12Ado]-X1)"
property_measured = "Activity"
recorded_measurement = "Active"

[[record]]
molecule = "CC(=O)O[C@@]12[C@H](OC(=O)CCCCCCCCCCCNC(=O)C[C@H](N)C(=O)N[C@@H](CCC(=O)N[C@@H](CCC(=O)N[C@@H](CCC(=O)N[C@@H](CCC(=O)O)C(=O)O)C(=O)O)C(=O)O)C(=O)O)[C@@H](C)[C@@]3(O)[C@@H](C=C(CO)C[C@]4(O)C(=O)C(C)=C[C@@H]34)[C@@H]1C2(C)C"
property_measured = "Activity"
recorded_measurement = "Active"

[[record]]
molecule = "CC(=O)O[C@@]12[C@H](OC(=O)CCCCCCCCCCCNC(=O)[C@H](CC(C)C)NC(=O)[C@H](CCC(N)=O)NC(=O)[C@H](CC(C)C)NC(=O)[C@H](CCCCN)NC(=O)[C@H](CO)NC(=O)[C@H](CO)NC(=O)[C@H](Cc3cnc[nH]3)NC(=O)N3CCOCC3)[C@@H](C)[C@@]3(O)[C@@H](C=C(CO)C[C@]4(O)C(=O)C(C)=C[C@@H]34)[C@@H]1C2(C)C ({Morpholide-CO}-HSSKLQL[12Ado]-X1)"
property_measured = "Activity"
recorded_measurement = "Active"

